All values here come from patent US10849982B2.

- Study system: UniProtKB Q96SW2
- Sequence (Q96SW2 whole entry): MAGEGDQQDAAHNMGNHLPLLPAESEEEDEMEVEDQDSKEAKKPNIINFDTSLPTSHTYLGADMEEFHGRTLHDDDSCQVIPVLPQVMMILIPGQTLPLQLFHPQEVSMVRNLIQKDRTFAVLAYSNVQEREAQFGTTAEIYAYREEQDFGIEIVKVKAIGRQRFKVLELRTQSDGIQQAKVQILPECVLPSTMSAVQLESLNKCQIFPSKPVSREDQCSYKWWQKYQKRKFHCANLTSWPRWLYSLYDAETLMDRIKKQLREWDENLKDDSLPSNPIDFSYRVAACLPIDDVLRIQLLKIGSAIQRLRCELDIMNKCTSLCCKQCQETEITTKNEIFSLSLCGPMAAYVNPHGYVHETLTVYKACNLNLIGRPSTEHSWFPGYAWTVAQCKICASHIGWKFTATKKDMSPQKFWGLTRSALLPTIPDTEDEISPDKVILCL
- Sequence (Q16531 whole entry partner): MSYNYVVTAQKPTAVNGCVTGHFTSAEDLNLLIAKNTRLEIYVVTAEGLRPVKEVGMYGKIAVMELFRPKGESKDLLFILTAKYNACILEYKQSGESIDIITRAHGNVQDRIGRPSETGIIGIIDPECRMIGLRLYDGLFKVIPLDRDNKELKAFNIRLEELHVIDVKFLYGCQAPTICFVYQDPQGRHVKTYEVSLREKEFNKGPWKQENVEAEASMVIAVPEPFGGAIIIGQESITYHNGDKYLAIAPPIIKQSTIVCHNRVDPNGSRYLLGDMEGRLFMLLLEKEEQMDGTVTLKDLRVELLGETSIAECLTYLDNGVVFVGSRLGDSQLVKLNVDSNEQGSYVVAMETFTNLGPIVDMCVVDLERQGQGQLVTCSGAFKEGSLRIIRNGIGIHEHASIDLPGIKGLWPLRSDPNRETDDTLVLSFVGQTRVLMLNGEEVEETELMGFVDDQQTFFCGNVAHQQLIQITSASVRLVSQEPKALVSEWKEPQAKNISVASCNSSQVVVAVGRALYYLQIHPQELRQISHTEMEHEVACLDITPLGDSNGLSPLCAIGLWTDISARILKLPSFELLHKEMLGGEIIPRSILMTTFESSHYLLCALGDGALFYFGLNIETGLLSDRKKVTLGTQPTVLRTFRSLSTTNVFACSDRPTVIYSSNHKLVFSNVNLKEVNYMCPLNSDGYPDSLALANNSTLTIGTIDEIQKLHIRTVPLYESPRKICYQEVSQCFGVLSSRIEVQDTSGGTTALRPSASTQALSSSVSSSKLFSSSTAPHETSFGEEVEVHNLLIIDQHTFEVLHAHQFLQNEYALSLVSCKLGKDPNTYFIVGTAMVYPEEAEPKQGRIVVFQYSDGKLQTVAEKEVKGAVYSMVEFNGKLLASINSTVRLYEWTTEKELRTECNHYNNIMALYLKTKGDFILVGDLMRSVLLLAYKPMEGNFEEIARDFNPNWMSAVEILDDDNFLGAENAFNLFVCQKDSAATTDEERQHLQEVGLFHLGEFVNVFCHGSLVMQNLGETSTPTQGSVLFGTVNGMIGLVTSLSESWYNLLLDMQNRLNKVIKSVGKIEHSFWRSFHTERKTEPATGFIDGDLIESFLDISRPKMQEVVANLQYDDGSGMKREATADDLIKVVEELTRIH
- Protocol text: CRBN-DDB1 fluorescence polarization (FP) binding assay
- Condition context: displacement of Thalidomide-Alexa Fluor or Pomalidomide-fluorescein probe
Where a name gives a salt, the structure may show the parent alone.
Hi there, I'd appreciate the recorded Kd for every entry that follows.

INPUT: Sample O=C1CCC(CC(=O)N2CCNCC2)C(=O)N1 (stereo not drawn) [Compound 45, hydrochloride Salt] — what was its Kd?
OUTPUT: 50 to 100 µM

INPUT: Sample Cn1cnc2c(C3CCC(=O)NC3=O)cccc21 (stereo not drawn) [Compound 36] — what was its Kd?
OUTPUT: 10 to 50 µM

INPUT: Sample Cn1cccc(C2CCC(=O)NC2=O)c1=O (stereo not drawn) [Compound 59] — what was its Kd?
OUTPUT: 50 to 100 µM

INPUT: Sample Cn1cc(C2CCC(=O)NC2=O)c2ccccc21 (stereo not drawn) [Compound 29] — what was its Kd?
OUTPUT: < 10 µM

INPUT: Sample O=C1CCC(CC(=O)Nc2ccccc2F)C(=O)N1 (stereo not drawn) [Compound 23] — what was its Kd?
OUTPUT: 50 to 100 µM

INPUT: Sample CN1Cc2ccc(C3CCC(=O)NC3=O)cc2C1=O (stereo not drawn) [Compound 41] — what was its Kd?
OUTPUT: 10 to 50 µM

----------
- Study system: UniProt Q96SW2
- Protocol text: CRBN-DDB1 fluorescence polarization (FP) binding assay
- Condition context: displacement of Thalidomide-Alexa Fluor or Pomalidomide-fluorescein probe
pKd: −log10 of the molar value. Where a name gives a salt, the structure may show the parent alone.
Endpoint label: pKd

INPUT: Sample CC(=O)Nc1ccc(C23CC2C(=O)NC3=O)cc1 (centres unmarked) — what was its pKd?
OUTPUT: < 4.00

INPUT: Sample CN(C)CC(=O)Nc1ccc(C23CC2C(=O)NC3=O)cc1 (centres unmarked) — what was its pKd?
OUTPUT: < 4.00

INPUT: Sample Cn1nc(-c2ccccc2)cc1C1CCC(=O)NC1=O (centres unmarked) — what was its pKd?
OUTPUT: 4.00 to 4.30

INPUT: Sample Cc1ccccc1C1CCC(=O)NC1=O (centres unmarked) — what was its pKd?
OUTPUT: 4.30 to 5.00

INPUT: Sample Cn1c(C2CCC(=O)NC2=O)nc2ccccc21 (centres unmarked) — what was its pKd?
OUTPUT: 4.00 to 4.30

INPUT: Sample Cn1nc(C2CCC(=O)NC2=O)c2ccc(NC3CCNCC3)cc21 (centres unmarked) [Compound 53, hydrochloride] — what was its pKd?
OUTPUT: > 5.00

INPUT: Sample CN(C(=O)C1CCC(=O)NC1=O)c1ccccc1 (centres unmarked) — what was its pKd?
OUTPUT: < 4.00

INPUT: Sample O=C1CCC(Cc2cn(-c3ccccc3)nn2)C(=O)N1 (centres unmarked) — what was its pKd?
OUTPUT: 4.30 to 5.00

INPUT: Sample CC(C)(C)OC(=O)N1CCN(C(=O)CC2CCC(=O)NC2=O)CC1 (centres unmarked) — what was its pKd?
OUTPUT: 4.00 to 4.30

INPUT: Sample O=C1CCC(c2nccc3ccccc23)C(=O)N1 (centres unmarked) — what was its pKd?
OUTPUT: 4.30 to 5.00

INPUT: Sample Cn1nc(C2CCC(=O)NC2=O)c2ccccc21 (centres unmarked) — what was its pKd?
OUTPUT: > 5.00
